# Test system: CAKI-1 renal
# testProtocol: NCI-60 one-dose screen, 48 h (100 = growth as untreated, 0 = no growth, -100 = all killed)
# experimentalParameters: 10 µM unless noted
This is part of a sample that, as a whole, favours compounds with a hit. Of some 83,000 tested, about 20% had one in any assay.

# molecule, growth [%]
measured = [
    ("O=S(=O)(Nc1cccc2ccccc12)c1ccc(-c2cnc(C3CC3)o2)cc1", 29.9),
    ("CCN(CC)c1ccc2c(c1)Oc1nc(N)c(C#N)c(N)c1C2Sc1ccc(F)cc1 (stereo not given)", -81.9),
    ("O=C(CNc1nc(-c2cccc([N+](=O)[O-])c2)cs1)Nc1cccc(Cl)c1", 106),
    ("CCN(CC)c1cn(-c2ccc(S(N)(=O)=O)cc2)nn1", 93.9),
    ("CCCn1cnc2c(c1=N)C(c1ccc(OC)cc1)c1sc3c(C)cccc3c1O2 (stereo not given)", 25.8),
    ("CC1=CC(=O)C2=C(C)CC(OC(=O)CCc3ccccc3)[C@@H]3[C@H](OC(=O)[C@@H]3C)[C@@H]12 (stereo not given in full)", 86.1),
    ("NC(N)=Nc1ccc(Oc2cccc(NC(N)=Nc3ccc(Br)c(C(F)(F)F)c3)c2)cc1", 72),
    ("C[C@@H](Nc1ncnc2ccc(-c3cnc(Cl)c(NS(C)(=O)=O)c3)cc12)c1ccccc1", 10.1),
    ("COC(=O)/C=C/c1c(C2(C)NC(=O)c3ccccc3N2)c(=O)oc2ccc(Cl)cc12 (stereo not given)", 78.2),
    ("CNC(=O)c1c(NC(=O)c2ccccc2C(F)(F)F)sc2c1CCC(=O)C2", 0.09),
    ("CS(=O)(=O)Nc1cc(-c2ccc3ncc(C#N)c(NCc4ccccc4)c3c2)cnc1Cl", -27.7),
    ("N#Cc1cnc2ccc(-c3cnc(N)nc3)cc2c1N1CCc2cc(F)c(Cl)cc21", 5.2),
    ("COc1cc(Nc2c(C#N)cnn3cc(-c4cnn(CC(C)(C)O)c4)cc23)ccc1Cl", 9.46),
    ("CC1=NC2=NC(=O)/C(=C3/N=C(C)C=C(c4ccccc4)N3N)NN2C(c2ccccc2)=C1", 83.2),
    ("COc1ccc(NC(=O)CSc2nnc(-c3ccc4nc(-c5ccc(OC)c(OC)c5)[nH]c4c3)o2)cc1OC", 94.7),
    ("CCN1CCN(Cc2cn(-c3ccc(S(N)(=O)=O)cc3)nn2)CC1", 96.5),
    ("COc1c(N2CC3CCCNC3C2)c(F)cc2c(=O)c(C(=O)N/N=C/c3ccc(F)cc3)cn(C3CC3)c12 (stereo not given)", 87.7),
    ("Cc1cc(C)n(C(=O)c2sc(=S)n(-c3ccccc3)c2N=Nc2c(N)n[nH]c2N)n1", 98.9),
    ("N#Cc1cccc(NC(=O)c2cc(-c3ccc(F)cc3F)ccc2O)c1", -16.7),
    ("Cc1cc(C)c2sc(=O)n(Cc3nnc(SCCC(=O)O)o3)c2n1", 89.5),
]

* * *

# Tested on: HCT-116 colon
# testProtocol: NCI-60 one-dose screen, 48 h
# experimentalParameters: 10 µM unless noted
Compounds without any hit were thinned out: in the full panel of roughly 83,000, 20% have a hit. Calls of active or inactive are those of the source. How the source made its calls: active means growth percent below 10; inactive means the rest.
Outcome codes: active, inactive

# compound, testedSystem, groupLabel
records = [
    ("O=C1[C@H]2Cc3c([nH]c4ccccc34)[C@@H](c3ccc(Br)cc3)N2C(=O)CN1C1CCN(CC2CCCCC2)CC1", "HCT-116 colon", "active"),
    ("CCCn1cnc2c(c1=N)C(c1ccc(F)cc1)c1sc3c(C)cccc3c1O2 (centres undefined)", "HCT-116 colon", "inactive"),
    ("COc1cc(/C=C2\\C(=O)Nc3ccccc32)ccc1OCc1ccc(F)cc1", "HCT-116 colon", "inactive"),
    ("N#Cc1c(Nc2ccccc2)nn2c(-c3ccc([N+](=O)[O-])cc3)ccnc12", "HCT-116 colon", "inactive"),
    ("O=C1Nc2ccccc2/C1=C/c1ccc(COCC2CO2)n1-c1ccc(O)cc1 (centres undefined)", "HCT-116 colon", "inactive"),
    ("CC(c1ccccc1)N1CSc2nc3ncncc3n2C1 (centres undefined)", "HCT-116 colon", "inactive"),
    ("CCc1ccc(SC2c3ccc(N(CC)CC)cc3Oc3nc(N)c(C#N)c(N)c32)cc1 (centres undefined)", "HCT-116 colon", "active"),
    ("COc1cc2oc(-c3cccc(C(=O)N[C@@H](CC(C)C)C(=O)OC(C)(C)C)c3)cc(=O)c2c(OC)c1OC", "HCT-116 colon", "inactive"),
    ("C#Cc1nc(/C=C/C(=O)c2nccn2C)cs1", "HCT-116 colon", "active"),
    ("Oc1cccc2ccc(-c3nnc(SCc4ccc(O)c5ncccc45)n3-c3ccccc3)nc12", "HCT-116 colon", "inactive"),
    ("CC1(C)CC[C@]2(C(=O)N3CCOCC3)CC[C@]3(C)C(=CC[C@@H]4[C@@]5(C)C/C(=C/c6ccco6)C(=O)C(C)(C)[C@@H]5CC[C@]43C)[C@@H]2C1", "HCT-116 colon", "inactive"),
    ("CCOc1ccc(C(=O)Nc2ncc(Cc3ccc(F)cc3)s2)cc1", "HCT-116 colon", "inactive"),
    ("CCNC(=O)N1CCc2cc(OC)c(OCCc3ccc(OC)cc3)cc2C1c1ccc([N+](=O)[O-])cc1C (centres undefined)", "HCT-116 colon", "active"),
    ("O=C1Nc2ccccc2/C1=C/c1ccc(CO)n1-c1ccc(Cl)cc1", "HCT-116 colon", "inactive"),
    ("Cc1ccc(-c2cc3nc(C(Cl)Cl)nc(-c4cccs4)n3n2)cc1", "HCT-116 colon", "inactive"),
    ("CN(C)CCN(C)c1ccc2ncc(C#Cc3cncc(C(=O)Nc4ccc(CN5CCN(C)CC5)c(C(F)(F)F)c4)c3)n2n1", "HCT-116 colon", "active"),
    ("CCNC(=O)N1CCc2cc(OC)c(OCCc3ccc(OC)cc3)cc2C1c1ccc(OC)cc1C (centres undefined)", "HCT-116 colon", "inactive"),
    ("COc1ccc(/C(N)=N/C(N)=N/c2nc3ccccc3s2)cc1", "HCT-116 colon", "inactive"),
    ("COc1ccc2[nH]cc(-c3csc4nc(-c5ccccc5)cn34)c2c1", "HCT-116 colon", "active"),
]

* * *

# System: MDA-MB-231 breast
# testProtocol: NCI-60 one-dose screen, 48 h (100 = growth as untreated, 0 = no growth, -100 = all killed)
# experimentalParameters: 10 µM unless noted
The panel holds about 83,000 compounds, 20% with a hit somewhere; the sample as a whole holds those more often.

# compound, testedSystem, growth [%]
records = [
    ("Nc1ccccc1NC(=O)c1ccc(NC(=O)C/C=C/c2cccnc2)cn1", "MDA-MB-231 breast", 41.6),
    ("CCc1nn2c(C)cc(C)nc2c1Cc1ccc(/C=C/CN2CCN(CCOCCOCCN3CCN(C/C=C/c4ccc(Cc5c(CC)nn6c(C)cc(C)nc56)cc4)CC3)CC2)cc1", "MDA-MB-231 breast", -66.2),
    ("N#Cc1cccc(/C(N)=N/C(N)=N/c2nc3ccccc3s2)c1", "MDA-MB-231 breast", 37.3),
    ("C[C@@H]1C[C@H]2C(=O)O[C@@H](C)C(NC(=O)[C@H](Cc3cc(F)cc(F)c3)NC(=O)Nc3ccc(C4CC4)cc3F)C(=O)N3CCC[C@H]3C(=O)N3CCCC[C@H]3C(=O)N[C@@H](CO)C(=O)N2C1 (some centres undefined)", "MDA-MB-231 breast", 33.9),
]

* * *

# System: OVCAR-4 ovarian
# testProtocol: NCI-60 one-dose screen, 48 h (100 = growth as untreated, 0 = no growth, -100 = all killed)
# experimentalParameters: 10 µM unless noted
The panel holds about 83,000 compounds, 20% with a hit somewhere; the sample as a whole holds those more often.
Give True when the value for growth is at least 80%. Give False when it is less.

# compound, groupLabel
data = [
    ("O=C1[C@@H]2Cc3c([nH]c4ccccc34)[C@H](c3c(Cl)cccc3Cl)N2C(=O)CN1C1CCN(CC2CCCCC2)CC1", "True"),
    ("Cc1ccc(NC(=O)CNc2cc(C(N)=O)cc(F)c2C)c(Cl)c1", "False"),
    ("CNC(=O)c1cc(-c2ccc(NS(=O)(=O)c3ccc(C)cc3)cc2)nc2cccnc12", "True"),
    ("CC1(C)[C@@H](O)CC[C@]2(C)[C@H]3CC[C@@H]4[C@H]5[C@H](C(=O)/C=C\\c6ccncc6)CC[C@]5(O)CC[C@@]4(C)[C@]3(C)CC[C@@H]12", "False"),
    ("C=CCN(C)S(=O)(=O)/N=C1\\NC(=O)NC1=C(Cl)Cl", "True"),
    ("NS(=O)(=O)c1ccc(Nc2nc(N/N=C/c3c[nH]c4ccccc34)nc(Nc3ccccc3)n2)cc1", "False"),
    ("N#Cc1cnc2ccc(-c3cnc(N)nc3)cc2c1N1CCc2cc(F)c(Cl)cc21", "False"),
    ("CC1(C)CC[C@]2(C(=O)N3CCOCC3)CC[C@]3(C)C(=CC[C@@H]4[C@@]5(C)C/C(=C/c6ccco6)C(=O)C(C)(C)[C@@H]5CC[C@]43C)[C@@H]2C1", "False"),
    ("Cn1ccnc1C(=O)/C=C/c1ccc(CNC(=O)c2ccc(Cl)cc2)cc1", "False"),
    ("Cc1cc(C)n(C(=O)c2sc(=S)n(-c3ccccc3)c2N=Nc2c(N)n[nH]c2N)n1", "True"),
    ("Cc1nc(-c2ccccc2O)ccc1C(=O)N=Nc1c(O)[nH]c2ccc(Br)cc12", "True"),
    ("O=C(Nc1ccc(F)c(F)c1)c1cc(-c2ccc(F)cc2F)ccc1O", "False"),
    ("Nc1nc(Nc2ccccc2SSc2ccccc2Nc2nc(N)nc(-c3ccccc3)n2)nc(-c2ccccc2)n1", "False"),
    ("COc1cc(OC)c(S(N)(=O)=O)cc1C(=O)/C=C/c1ccc(Cl)cc1", "False"),
    ("COC(=O)C[Se]C(=O)Cc1c(C)n(C(=O)c2ccc(Cl)cc2)c2ccc(OC)cc12", "False"),
    ("Cc1cccc2c3c(sc12)C(c1ccc(F)cc1)C(C#N)=C(/N=C/c1ccc(Cl)cc1)O3 (stereo not drawn)", "False"),
]
